Here we list compounds with their recorded MIC when tested on Klebsiella pneumoniae.
Output spec: scalar in µM, unitless text.

Here's what some known entries look like.
query.smiles	target.or.system	MIC / µM
CC[C@H](C)[C@H](NC(=O)CN)C(=O)NCC(=O)N[C@@H](CCCCN)C(=O)N[C@@H](Cc1cnc[nH]1)C(=O)N[C@H](C(=O)NCC(=O)N[C@@H](CCCCN)C(=O)N[C@@H](C)C(=O)N[C@@H](CC(C)C)C(=O)N[C@@H](CCCCN)C(=O)NCC(=O)N[C@@H](CC(C)C)C(=O)N[C@@H](CCCCN)C(=O)NCC(=O)N[C@@H](CC(C)C)C(=O)N[C@@H](CC(C)C)C(=O)N[C@@H](CCCCN)C(=O)NCC(=O)N[C@@H](CC(C)C)C(=O)NCC(=O)N[C@@H](CCC(=O)O)C(=O)N[C@@H](CS)C(=O)O)C(C)C	Klebsiella pneumoniae	1
CC[C@H](C)[C@H](N)C(=O)N[C@@H](CC(C)C)C(=O)N[C@@H](CO)C(=O)N[C@@H](CC(C)C)C(=O)N[C@@H](CCCN=C(N)N)C(=O)N[C@@H](Cc1c[nH]c2ccccc12)C(=O)N[C@@H](Cc1c[nH]c2ccccc12)C(=O)N[C@@H](CCCN=C(N)N)C(=O)N[C@@H](CCCCN)C(=O)N[C@@H](Cc1c[nH]c2ccccc12)C(=O)N[C@@H](Cc1c[nH]c2ccccc12)C(=O)N[C@@H](CCCCN)C(=O)N[C@@H](CCCCN)C(=O)O	Klebsiella pneumoniae	136
CC(C)C[C@H](NC(=O)[C@H](CCCCN)NC(=O)[C@H](CCCCN)NC(=O)[C@H](CC(C)C)NC(=O)[C@H](CC(C)C)NC(=O)[C@H](CCCCN)NC(=O)[C@H](CCCCN)NC(=O)[C@H](CC(C)C)NC(=O)[C@H](CC(C)C)NC(=O)[C@H](CCCCN)NC(=O)[C@H](CCCCN)NC(=O)[C@@H](N)CC(C)C)C(N)=O	Klebsiella pneumoniae	31.3
CC(C)C[C@H](NC(=O)[C@H](C)NC(=O)CNC(=O)[C@H](CC(C)C)NC(=O)[C@@H](N)Cc1ccccc1)C(=O)N[C@@H](Cc1ccccc1)C(=O)N[C@@H](CCCCN)C(=O)N[C@H](C(=O)N[C@@H](C)C(=O)N[C@@H](Cc1c[nH]c2ccccc12)C(=O)N[C@@H](CCCCN)C(=O)O)C(C)C	Klebsiella pneumoniae	39.1
CC[C@H](C)[C@@H]1NC(=O)CNC(=O)[C@H](CCCN=C(N)N)NC(=O)[C@H](Cc2ccc(O)cc2)NC(=O)[C@H](C)NC(=O)[C@H](C(C)C)NC(=O)[C@H](CCCN=C(N)N)NC(=O)[C@H](Cc2ccccc2)NC(=O)[C@@H](NC(=O)[C@H](Cc2c[nH]c3ccccc23)NC(=O)[C@@H](N)CCCCN)CSSC[C@@H](C(=O)N[C@@H](CCCN=C(N)N)C(=O)O)NC(=O)[C@H](CCCN=C(N)N)NC(=O)[C@H](CCCN=C(N)N)NC(=O)[C@H](Cc2ccc(O)cc2)NC(=O)[C@H](C)NC1=O	Klebsiella pneumoniae	7.26

Would you kindly look at the next entry?
(Q) Request the reported MIC associated with `CC[C@H](C)[C@H](NC(=O)[C@H](C)NC(=O)[C@H](CCCCN)NC(=O)[C@H](CC(C)C)NC(=O)[C@@H](N)CC(N)=O)C(=O)N[C@@H](C)C(=O)N[C@@H](C)C(=O)N[C@@H](CC(C)C)C(=O)N[C@@H](C)C(=O)N[C@@H](CCCCN)C(=O)N[C@@H](CCCCN)C(=O)N[C@@H](CC(C)C)C(=O)N[C@@H](CC(C)C)C(=O)O`
(A) 7.32
